Biological target: recombinant human galectin-1 (Homo sapiens, UniProt P09382)
Sequence (P09382 whole entry): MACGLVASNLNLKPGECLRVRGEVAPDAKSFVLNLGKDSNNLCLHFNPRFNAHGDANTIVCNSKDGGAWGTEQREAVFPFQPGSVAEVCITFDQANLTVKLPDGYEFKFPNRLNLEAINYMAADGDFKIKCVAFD
Assay: SPR (BIAcore) equilibrium binding to immobilized galectin-1
Conditions: SPR steady-state analysis; read-out: KD value for galectin-1
# Kd annotations

Molecule: CC(C)CC(NCC(=O)C(O)C(OC1OC(CO)C(O)C(O)C1O)C(O)CO)C(=O)O (centres unmarked)
Assayed target: recombinant human galectin-1 (Homo sapiens, UniProt P09382)
Kd: ~110 µM

Molecule: OCC1OC(OC2C(O)COC(O)(CNCCCCCCNCC3(O)OCC(O)C(OC4OC(CO)C(O)C(O)C4O)C3O)C2O)C(O)C(O)C1O (centres unmarked)
Assayed target: recombinant human galectin-1 (Homo sapiens, UniProt P09382)
Kd: ~1.5 µM

---

Molecular target: recombinant human galectin-4 (Homo sapiens)
Construct: cDNA encoding full-length human galectin-4 was amplified from an EST clone; made in house; host or cells: E. coli BL21 (DE3)pLysS
Sequence (P56470 whole entry): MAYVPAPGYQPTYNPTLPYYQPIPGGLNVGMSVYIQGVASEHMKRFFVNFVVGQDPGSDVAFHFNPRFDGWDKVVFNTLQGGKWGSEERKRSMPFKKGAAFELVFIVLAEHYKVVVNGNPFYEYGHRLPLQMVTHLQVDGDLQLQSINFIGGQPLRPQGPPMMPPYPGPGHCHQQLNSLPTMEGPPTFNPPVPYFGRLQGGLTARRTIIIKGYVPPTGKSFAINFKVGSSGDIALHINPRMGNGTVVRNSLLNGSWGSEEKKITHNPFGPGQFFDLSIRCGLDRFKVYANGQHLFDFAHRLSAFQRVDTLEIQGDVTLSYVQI
Assay: SPR (BIAcore) equilibrium binding to immobilized galectin-4
Conditions: SPR steady state affinity fit, Table I; read-out: Galectin-4 binding, KD
pKd: −log10 of the molar value.

Compound: O=C(O)CCCNCC(=O)C(O)C(OC1OC(CO)C(O)C(O)C1O)C(O)CO (centres unmarked)
Assayed target: recombinant human galectin-4 (Homo sapiens)
pKd: 2.98
--
Compound: CCC(C)C(NCC(=O)C(O)C(OC1OC(CO)C(O)C(O)C1O)C(O)CO)C(=O)O (centres unmarked)
Assayed target: recombinant human galectin-4 (Homo sapiens)
pKd: 3.26
--
Compound: CC(O)C(NCC(=O)C(O)C(OC1OC(CO)C(O)C(O)C1O)C(O)CO)C(=O)O (centres unmarked)
Assayed target: recombinant human galectin-4 (Homo sapiens)
pKd: 2.42
--
Compound: CSCCC(NCC(=O)C(O)C(OC1OC(CO)C(O)C(O)C1O)C(O)CO)C(=O)O (centres unmarked)
Assayed target: recombinant human galectin-4 (Homo sapiens)
pKd: 2.90
--
Compound: O=C(CN1CCCC1C(=O)O)C(O)C(OC1OC(CO)C(O)C(O)C1O)C(O)CO (centres unmarked)
Assayed target: recombinant human galectin-4 (Homo sapiens)
pKd: 3.28
--
Compound: O=C(O)CNCC(=O)C(O)C(OC1OC(CO)C(O)C(O)C1O)C(O)CO (centres unmarked)
Assayed target: recombinant human galectin-4 (Homo sapiens)
pKd: 3.10
--
Compound: O=C(O)C(Cc1c[nH]cn1)NCC(=O)C(O)C(OC1OC(CO)C(O)C(O)C1O)C(O)CO (centres unmarked)
Assayed target: recombinant human galectin-4 (Homo sapiens)
pKd: 2.64
--
Compound: CC(NCC(=O)C(O)C(OC1OC(CO)C(O)C(O)C1O)C(O)CO)C(=O)O (centres unmarked)
Assayed target: recombinant human galectin-4 (Homo sapiens)
pKd: 3.00

---

Target: galectin-1 binding to 90K/MAC-2BP (Homo sapiens, UniProt P09382)
Sequence (P09382 2-135 limits assumed): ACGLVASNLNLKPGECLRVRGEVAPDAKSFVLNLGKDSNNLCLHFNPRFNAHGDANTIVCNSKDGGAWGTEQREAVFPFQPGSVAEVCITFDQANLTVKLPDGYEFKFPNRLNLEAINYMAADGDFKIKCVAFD
Experiment: ELISA, inhibition of galectin-1 binding to immobilized 90K
Settings: at 156 μM; galectin-1 2.5 μg/ml (0.17 μM)
Measurement label: inhibition of binding of galectin-1 to 90K

Compound: OC[C@H]1O[C@@H](O[C@H]2[C@H](O)[C@@H](O)[C@H](O)O[C@@H]2CO)[C@H](O)[C@@H](O)[C@H]1O [β-lactose, reference compound]
Reported measurement: about 20%
//
Compound: CC(C)CC(NCC(=O)C(O)C(OC1OC(CO)C(O)C(O)C1O)C(O)CO)C(=O)O (centres unmarked)
Reported measurement: about 50%
//
Compound: O=C(O)CNCC(=O)C(O)C(OC1OC(CO)C(O)C(O)C1O)C(O)CO (centres unmarked)
Reported measurement: about 20%
//
Compound: O=C(CN1CCCC1C(=O)O)C(O)C(OC1OC(CO)C(O)C(O)C1O)C(O)CO (centres unmarked)
Reported measurement: about 50%
